Tested on: HCC-70 cells
Test details: Cytotoxicity assay of ADC (Cell Titer Glo) on HCC-70
Condition description: read-out: IC50 (nM), ADC cytotoxicity; HCC-70, 5 days
Non-standard residues stand in square brackets, D forms with d. Residues, ends and D or L forms follow the SMILES beside them. *: point of attachment. Dolaproine = CO[C@@H]([C@@H]1CCCN1)[C@@H](C)C(=O)O; Dil = CC[C@H](C)[C@H](NC)[C@@H](CC(=O)O)OC; X1 = C[C@@H](N*)[C@@H](O)c1ccccc1; NMeV = CN[C@H](C(=O)O)C(C)C
Measure: IC50 (nM)
Write it as a number; the unit nM goes unstated.

Problem: Fill in the blank: the reported IC50 of CC[C@H](C)[C@@H]([C@@H](CC(=O)N1CCC[C@H]1[C@H](OC)[C@@H](C)C(=O)N[C@H](C)[C@@H](O)c1ccccc1)OC)N(C)C(=O)[C@@H](NC(=O)[C@@H](NC)C(C)C)C(C)C [Free drug (MMAE), mono-methyl auristatin E] (H-[NMeV]V[Dil][Dolaproine]-X1) is ____.
Solution: 0.23
